Target: mu opiate receptor (MOR) (Rattus norvegicus, UniProt P33535)
Construct: from tissue; host or cells: striatum (membrane preparation)
Sequence (P33535 whole entry): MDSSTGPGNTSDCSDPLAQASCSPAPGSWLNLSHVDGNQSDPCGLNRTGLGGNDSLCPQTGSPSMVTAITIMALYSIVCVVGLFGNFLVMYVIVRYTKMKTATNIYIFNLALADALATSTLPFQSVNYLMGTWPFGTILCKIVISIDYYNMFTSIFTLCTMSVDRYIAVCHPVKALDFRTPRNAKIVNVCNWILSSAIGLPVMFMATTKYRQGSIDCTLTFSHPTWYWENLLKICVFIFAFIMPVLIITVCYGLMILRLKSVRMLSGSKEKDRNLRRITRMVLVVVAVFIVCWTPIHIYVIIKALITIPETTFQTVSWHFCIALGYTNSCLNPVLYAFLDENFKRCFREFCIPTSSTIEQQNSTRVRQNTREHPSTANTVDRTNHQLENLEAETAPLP
Type: biochemical
Consider the cut-off 90%. If the recorded % DAMGO (1 μM) is strictly smaller, the label is true (1); if not, the label is false (0).

Worked set:
CC(=O)c1ccc(S(=O)(=O)N2CC(CN(C)C)OC23CCN(CC2CC2)CC3)cc1 (centres unmarked) [Compound C0128M] ... false (0)
CC(O)c1ccc(S(=O)(=O)N2CCC3(CC2)OCCN3S(=O)(=O)c2ccc(C(C)O)cc2)cc1 (centres unmarked) ... true (1)
O=S(=O)(c1ccc(Cl)cc1)N1CCC2(CC1)OCCN2S(=O)(=O)c1ccc(Cl)cc1 ... true (1)
COc1ccccc1CC(=O)CC1c2c(cc3c(c2OC)OCO3)CC[N+]1(C)C (centres unmarked) ... true (1)

Prompt: Check if % DAMGO (1 μM) falls below 90% for CC(=O)c1ccc(OCC(O)CN2CC(C)OC(C)C2)cc1 (centres unmarked) .
Completion: true (1)

Prompt: Check if % DAMGO (1 μM) falls below 90% for OC(COc1cccc(C(F)(F)F)c1)CN1CCc2ccccc2C1 (centres unmarked) .
Completion: true (1)

---

Target: mu opiate receptor (MOR) (Rattus norvegicus)
Construct: from tissue; host or cells: striatum (membrane preparation)
Type: biochemical
Conditions: [35S]GTPγS binding to Gαo in striatal membranes; compound 0.1 μM
Reported values of Concentration of FLNA-Binding Compound as Agonist 0.1 μM for individual entries
Give the quantity in %, number only.

COc1cc(F)ccc1C(=O)CC1c2c(cc3c(c2OC)OCO3)CC[N+]1(C)C (centres unmarked) ... 168.3
O=S(=O)(c1ccc(-c2ccccc2)cc1)N1CCC2(CC1)OCCN2S(=O)(=O)c1ccc(-c2ccccc2)cc1 ... 136.5
COc1ccc(C(=O)CC2c3c(cc4c(c3OC)OCO4)CC[N+]2(C)C)c(F)c1 (centres unmarked) ... 140.9
CC(O)c1ccc(S(=O)(=O)N2CCC3(CC2)OCCN3S(=O)(=O)c2ccc(C(C)O)cc2)cc1 (centres unmarked) ... 94.4
CC(=O)c1ccc(S(=O)(=O)N2CCC3(CC2)NCC(=O)N3Cc2ccccc2)cc1 [Compound C0082M] ... 228.1
N#Cc1ccc(S(=O)(=O)N2CCC3(CC2)OCCN3S(=O)(=O)c2ccc(C#N)cc2)cc1 ... 71.2
COc1c2c(cc3c1C(CC(=O)c1ccc(C#N)cc1)[N+](C)(C)CC3)OCO2 (centres unmarked) ... 128.2

Prompt: # value lookup — system mu opiate receptor (MOR) (Rattus norvegicus), readout Concentration of FLNA-Binding Compound as Agonist 0.1 μM, item Cc1cccc(S(=O)(=O)N2CCC3(CC2)OCCN3S(=O)(=O)c2cccc(C)c2)c1
Completion: 144.9

---

Biological target: mu opiate receptor (MOR) (Rattus norvegicus, UniProt P33535)
Construct: from tissue; host or cells: striatum (membrane preparation)
Type: biochemical
Conditions: [35S]GTPγS binding to Gαo in striatal membranes; compound 1 μM plus 1 μM β-funaltrexamine (MOR antagonist)
REPORTED_ENDPOINT: Concentration of FLNA-Binding Compound as Agonist 1 μM + BFNA (%)
Give the quantity in %, number only.

Past entries and their recorded results:
COCOc1ccc(CCC(=O)CC2c3c(cc4c(c3OC)OCO4)CC[N+]2(C)C)cc1 (stereo not shown) ... 55.3
CC1CCC(C(C)C)C(OCC(O)CN2CCCCC2=O)C1 (stereo not shown) ... 63.2
CC(=O)c1ccc(S(=O)(=O)N2CCC3(CC2)NC(=O)C(Cc2cnc[nH]2)N3S(=O)(=O)c2ccc(C(C)=O)cc2)cc1 (stereo not shown) [Compound C0084M] ... 133.2
O=S(=O)(c1ccc(Br)cc1C(F)(F)F)N1CCC2(CC1)OCCN2S(=O)(=O)c1ccc(Br)cc1C(F)(F)F ... 165.9
CC1CCC(C(C)C)C(OCC(O)CN2CC(C)OC(C)C2)C1 (stereo not shown) [Compound A3333] ... 65.9
O=C(c1ccc([N+](=O)[O-])cc1)N1CCC2(CC1)OCCN2C(=O)c1ccc([N+](=O)[O-])cc1 ... 80.9

Prompt: Which Concentration of FLNA-Binding Compound as Agonist 1 μM + BFNA value belongs to COc1ccc(S(=O)(=O)N2CCC3(OCCN3S(=O)(=O)c3ccc(OC)cc3)C3CCCCC32)cc1 (stereo not shown) [Compound C0144M] ?
Completion: 125.9

Prompt: Which Concentration of FLNA-Binding Compound as Agonist 1 μM + BFNA value belongs to COc1ccccc1CCC(=O)CC1c2c(cc3c(c2OC)OCO3)CC[N+]1(C)C (stereo not shown) ?
Completion: 83.8

---

Molecular target: mu opiate receptor (MOR) (Rattus norvegicus)
Construct: from tissue; host or cells: striatum (membrane preparation)
Assay type: biochemical
REPORTED_ENDPOINT: % DAMGO (1 μM) (%)
Give the quantity in %, number only.

Past entries and their recorded results:
COc1ccc(C(=O)N2CCC3(CC2)OCCN3S(=O)(=O)c2ccc(OC)cc2)cc1 ... 95.5
CCOc1ccc(C(=O)CC2c3c(cc4c(c3OC)OCO4)CC[N+]2(C)C)cc1F (centres unmarked) ... 68.0
CC1CCC(C(C)C)C(OCC(O)Cn2cccc2)C1 (centres unmarked) ... 85.0
COc1ccc(NC(=O)N2CCC3(CC2)OCCN3C(=O)Nc2ccc(OC)cc2)cc1 [Compound C0151M] ... 122.0
Cc1ccc(S(=O)(=O)N2CCC3(CC2)OCCN3S(=O)(=O)c2ccc(C)cc2)cc1 ... 66.6
O=S(=O)(c1ccc(Br)cc1F)N1CCC2(CC1)OCCN2S(=O)(=O)c1ccc(Br)cc1F ... 106.4
OC(COc1ccc(Br)c(F)c1)CN1CCSCC1 (centres unmarked) ... 56.4
CC1CCC(C(C)C)C(OCC(O)CN2CCCCCCC2)C1 (centres unmarked) ... 67.5
CC1CN(CC(O)COc2cc(F)cc(F)c2)CC(C)O1 (centres unmarked) ... 128.3
CC1CCC(C(C)C)C(OCC(CN2CC(C)OC(C)C2)NCc2ccccc2)C1 (centres unmarked) ... 92.2

Prompt: Which % DAMGO (1 μM) value belongs to COc1ccc(CCC(=O)CC2c3c(cc4c(c3OC)OCO4)CCN2C)cc1 (centres unmarked) ?
Completion: 92.6

Prompt: Which % DAMGO (1 μM) value belongs to CC1CCC(C(C)C)C(OCC(O)CN2CCN(CCN3CCOCC3)CC2)C1 (centres unmarked) ?
Completion: 124.9

Prompt: Which % DAMGO (1 μM) value belongs to N#Cc1ccc(S(=O)(=O)N2CCC3(CC2)OCCN3S(=O)(=O)c2ccc(C#N)cc2)cc1 ?
Completion: 72.9

Prompt: Which % DAMGO (1 μM) value belongs to O=S(=O)(c1ccc(C(F)(F)F)cc1Br)N1CCC2(CC1)OCCN2S(=O)(=O)c1ccc(C(F)(F)F)cc1Br ?
Completion: 161.7

Prompt: Which % DAMGO (1 μM) value belongs to O=C1CN(Cc2ccccc2)C2(CCNCC2)N1 [Compound C0115M] ?
Completion: 102.0

Prompt: Which % DAMGO (1 μM) value belongs to COc1ccc(N2CCN(CC(O)COC3CC(C)CCC3C(C)C)CC2)c(OC)c1 (centres unmarked) ?
Completion: 80.7

Prompt: Which % DAMGO (1 μM) value belongs to CC1CCC(C(C)C)C(OCC(O)CN2CCN(CCN3CCCCC3)CC2)C1 (centres unmarked) ?
Completion: 116.8

---

Reported values of % DAMGO (1 μM) for individual entries
Molecular target: mu opiate receptor (MOR) (Rattus norvegicus)
Construct: from tissue; host or cells: striatum (membrane preparation)
Type: biochemical
Give the quantity in %, number only.

Past entries and their recorded results:
NS(=O)(=O)c1ccc(S(=O)(=O)N2CCC3(CC2)OCCN3S(=O)(=O)c2ccc(S(N)(=O)=O)cc2)cc1 ... 76.7
O=S(=O)(c1cccc2cccnc12)N1CCC2(CC1)OCCN2S(=O)(=O)c1cccc2cccnc12 [Compound C0143M] ... 59.3
COc1c2c(cc3c1C(CC(=O)Cc1ccccc1C)N(C)CC3)OCO2 (centres unmarked) ... 137.0
COc1c2c(cc3c1C(CC(=O)c1ccncc1)[N+](C)(C)CC3)OCO2 (centres unmarked) ... 42.6

Prompt: Which % DAMGO (1 μM) value belongs to O=S(=O)(c1ccc(OC(F)(F)F)cc1)N1CCC2(CC1)OCCN2S(=O)(=O)c1ccc(OC(F)(F)F)cc1 ?
Completion: 73.8

Prompt: Which % DAMGO (1 μM) value belongs to CC1CCC(C(C)C)C(OCC(O)CN2CCCCCC2)C1 (centres unmarked) ?
Completion: 63.6

Prompt: Which % DAMGO (1 μM) value belongs to O=C1CN(Cc2ccccc2)C2(CCN(S(=O)(=O)c3cc(Cl)c(O)c(Cl)c3)CC2)N1 [Compound C0139M] ?
Completion: 102.2

Prompt: Which % DAMGO (1 μM) value belongs to COc1c2c(cc3c1C(CC(=O)Cc1ccc(C#N)cc1)[N+](C)(C)CC3)OCO2 (centres unmarked) ?
Completion: 79.4

Prompt: Which % DAMGO (1 μM) value belongs to CC1CCC(C(C)C)C(OCC(O)Cn2ccc3ccccc32)C1 (centres unmarked) ?
Completion: 92.3

Prompt: Which % DAMGO (1 μM) value belongs to O=S(=O)(c1ccc(Br)cc1)N1CCC2(CC1)OCCN2S(=O)(=O)c1ccc(Br)cc1 ?
Completion: 117.5

Prompt: Which % DAMGO (1 μM) value belongs to COc1ccc(S(=O)(=O)N2CCCC3(C2)OCCN3S(=O)(=O)c2ccc(OC)cc2)cc1 (centres unmarked) [Compound C0145M] ?
Completion: 88.7

Prompt: Which % DAMGO (1 μM) value belongs to COc1ccc(NC(=O)N2CCC3(CC2)OCCN3S(=O)(=O)c2ccc(OC)cc2)cc1 ?
Completion: 111.7

Prompt: Which % DAMGO (1 μM) value belongs to COc1c2c(cc3c1C(CC(=O)/C=C/c1ccc(Cl)cc1)[N+](C)(C)CC3)OCO2 (centres unmarked) ?
Completion: 96.0

Prompt: Which % DAMGO (1 μM) value belongs to O=C1CN(Cc2ccccc2)C2(CCN(C3CCCCC3)CC2)N1 [C0137M (P7)] ?
Completion: 78.1

Prompt: Which % DAMGO (1 μM) value belongs to O=S(=O)(c1cccc(OC(F)(F)F)c1)N1CCC2(CC1)OCCN2S(=O)(=O)c1cccc(OC(F)(F)F)c1 ?
Completion: 85.1

Prompt: Which % DAMGO (1 μM) value belongs to COc1ccc(S(=O)(=O)N2CCOC23CCN(CC2CC2)CC3)cc1 [Compound C0090M] ?
Completion: 155.2

Prompt: Which % DAMGO (1 μM) value belongs to CN1CCC2(CC1)OCCN2S(=O)(=O)c1ccc(S(C)(=O)=O)cc1 [Compound C0106M] ?
Completion: 108.3

Prompt: Which % DAMGO (1 μM) value belongs to O=C(c1ccc([N+](=O)[O-])cc1)N1CCC2(CC1)OCCN2C(=O)c1ccc([N+](=O)[O-])cc1 ?
Completion: 87.3
